target: NAMPT (Homo sapiens, UniProt P43490)
Sequence (P43490 whole entry): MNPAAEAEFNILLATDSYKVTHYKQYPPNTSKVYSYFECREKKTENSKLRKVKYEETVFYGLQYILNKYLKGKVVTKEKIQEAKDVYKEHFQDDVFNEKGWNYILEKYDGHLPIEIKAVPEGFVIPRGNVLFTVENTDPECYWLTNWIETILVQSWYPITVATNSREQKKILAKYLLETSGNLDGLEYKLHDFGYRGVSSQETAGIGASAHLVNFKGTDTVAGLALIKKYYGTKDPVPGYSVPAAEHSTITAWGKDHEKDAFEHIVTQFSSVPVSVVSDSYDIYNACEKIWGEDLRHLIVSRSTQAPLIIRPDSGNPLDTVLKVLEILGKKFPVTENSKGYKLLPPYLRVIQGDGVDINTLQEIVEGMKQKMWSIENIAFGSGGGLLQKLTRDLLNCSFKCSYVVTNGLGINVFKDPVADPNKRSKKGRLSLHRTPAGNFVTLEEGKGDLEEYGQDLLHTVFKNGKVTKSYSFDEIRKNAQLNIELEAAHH
test: TR-FRET Binding Assay of NAMPT with PRPP
assaySetup: 2 nM NAMPT, 2 nM probe, 200 µM PRPP and 2.5 mM ATP, equilibrated 16 hours
Listed below: IC50 values for each entry.
Reply with just the number (in nM).

molecule	IC50 [nM]
Cc1ccc(C(=O)N2CC(c3ccc(NC(=O)N4CC(c5cccnc5)C4)cc3)C2)s1 [Example 223]	0.391

Query: Provide measured IC50 value, entry: CC(C)(O)C(=O)N1CCC(c2ccc(NC(=O)N3CC(c4cccnc4F)C3)cc2)CC1 [Example 156]
Response: 0.237

Query: Input CC1(C(=O)N2CC(Oc3ccc(NC(=O)N4CC(c5cccnc5)C4)cc3)C2)CC1 [Example 135] , output reported IC50.
Response: 0.376

----------
target: NAMPT (Homo sapiens)
test: TR-FRET Binding Assay of NAMPT with PRPP
assaySetup: 2 nM NAMPT, 2 nM probe, 200 µM PRPP and 2.5 mM ATP, equilibrated 16 hours
assayMetric: pIC50
On this scale, pIC50 is minus log10 of a concentration expressed in M (mol/L).

compoundStructureString	pIC50
CCC(C)(C)C(=O)N1CC(Oc2ccc(NC(=O)N3CC(c4cccnc4)C3)cc2)C1	9.31
CC1(C(=O)N2CC(c3ccc(NC(=O)N4CC(c5cccnc5)C4)cc3)C2)CCCCC1	9.53
COCC(=O)N1CCC(c2ccc(NC(=O)N3CC(c4cccnc4)C3)cc2)CC1	9.52

Would you kindly look at the next entry?
Query: Return pIC50 for the following molecule: O=C(Nc1ccc(C2CN(C(=O)C3CCCCC3)C2)cc1)N1CC(c2cccnc2)C1
Response: 9.47

----------
target: NAMPT (Homo sapiens, UniProt P43490)
test: TR-FRET Binding Assay of NAMPT with PRPP
assaySetup: 2 nM NAMPT, 2 nM probe, 200 µM PRPP and 2.5 mM ATP, equilibrated 16 hours
assayMetric: IC50 (nM)
API: value field is a number in nM; no unit string.

compound	IC50 [nM]
CC(C)(C)C(=O)N1CCC(c2ccc(NC(=O)N3CC(c4cccnc4)C3)cc2)C1 (centres unmarked) [Example 282]	0.219
CCOCC(=O)N1CC(Oc2ccc(NC(=O)N3CC(c4cccnc4)C3)cc2)C1 [Example 119]	0.978
O=C(Nc1ccc(C2CN(C(=O)C3CCOC3)C2)cc1)N1CC(c2cccnc2)C1 (centres unmarked) [Example 104]	0.389
CC(C)(O)C(=O)N1CC(c2ccc(NC(=O)N3CC(c4cccnc4)C3)cc2)C1 [Example 106]	0.553
CSCCC(=O)N1CC=C(c2ccc(NC(=O)N3CC(c4cccnc4)C3)cc2)CC1 [Example 24]	0.988
Cn1cccc1C(=O)N1CC(c2ccc(NC(=O)N3CC(c4cccnc4)C3)cc2)C1 [Example 225]	0.268
O=C(CCC(F)(F)F)N1CC=C(c2ccc(NC(=O)N3CC(c4cccnc4)C3)cc2)CC1 [Example 19]	0.86
O=C(CN1CCOCC1)N1CC(c2ccc(NC(=O)N3CC(c4cccnc4)C3)cc2)C1 [Example 221]	0.319

Query: Please list IC50 recorded for the compound CCC(C)(C)CN1CC(c2ccc(NC(=O)N3CC(c4cccnc4)C3)cc2)C1 [Example 257]
Response: 0.223

Query: In one line, give reported IC50 of the entry O=C(CCC(F)(F)F)N1CCC(c2ccc(NC(=O)N3CC(c4cccnc4)C3)cc2)C1 (centres unmarked) [Example 271] .
Response: 0.279

Query: Please indicate IC50 recorded for CC(=O)N1CCC(C(=O)N2CCC(Oc3ccc(NC(=O)N4CC(c5cccnc5)C4)cc3)CC2)CC1 [Example 34]
Response: 0.264

----------
target: NAMPT (Homo sapiens)
test: Time-Resolved Fluorescence Resonance Energy Transfer (TR-FRET) Binding Assay of NAMPT
assaySetup: 6.8 nM NAMPT, 200 nM probe, equilibrated 3 hours, no substrates
pIC50 values for the molecules below.
// pIC50: -log10(molar conc.)

molecule	pIC50
CCOCC(=O)N1CC=C(c2ccc(NC(=O)N3CC(c4cccnc4)C3)cc2)CC1	6.84
O=C(Nc1ccc(C2CCN(C(=O)C3CCOC3)C2)cc1)N1CC(c2cccnc2)C1 (centres unmarked)	7.06
O=C(CCC(F)(F)F)N1CC(c2ccc(NC(=O)N3CC(c4cccnc4)C3)cc2)C1	7.06
O=C(Nc1ccc(O[C@H]2CCN(C(=O)C3CCOC3)C2)cc1)N1CC(c2cccnc2)C1 (some centres unmarked)	6.41

Query: State its pIC50: Cn1cccc1C(=O)N1CC(c2ccc(NC(=O)N3CC(c4cccnc4)C3)cc2)C1
Response: 7.85

Query: Fill in reported pIC50 for this entry: O=C(CC1CCCC1)N1CCC(c2ccc(NC(=O)N3CC(c4cccnc4)C3)cc2)CC1
Response: 7.82

Query: Input CC(C)C(C)C(=O)N1CC[C@@H](Oc2ccc(NC(=O)N3CC(c4cccnc4)C3)cc2)C1 (some centres unmarked) , output reported pIC50.
Response: 7.34

Query: Please report the measured pIC50 for O=C(CCN1CCOCC1)N1CC[C@@H](Oc2ccc(NC(=O)N3CC(c4cccnc4)C3)cc2)C1
Response: 6.75

----------
pIC50 reference
target: NAMPT (Homo sapiens, UniProt P43490)
test: TR-FRET Binding Assay of NAMPT with PRPP
assaySetup: 2 nM NAMPT, 2 nM probe, 200 µM PRPP and 2.5 mM ATP, equilibrated 16 hours
Procedure: Time-Resolved Fluorescence Resonance Energy Transfer (TR-FRET) Binding Assay of NAMPT with PRPP Compound handling and data processing were identical to the assay in the absence of substrates (above). Final concentrations were 1× assay buffer, 2% DMSO, 2 nM NAMPT, 2 nM probe, 1 nM Tb-anti-His antibody (Invitrogen #PV5895), 200 µM PRPP and 2.5 mM ATP. Reactions were equilibrated for 16 hours prior to measurement to allow for potential enzymatic modification of test compounds.
API: returns pIC50 as number; meaning -log10 of concentration in mol/L.

A selection of reference data follows.
compound	measuredResult
Cc1ccc(C(=O)N2CC[C@@H](Oc3ccc(NC(=O)N4CC(c5cccnc5)C4)cc3)C2)s1 [Example 323]	9.71
CC[C@H](C)C(=O)N1CC[C@@H](Oc2ccc(NC(=O)N3CC(c4cccnc4)C3)cc2)C1 [Example 86]	9.61
O=C(Nc1ccc(OC2CN(C(=O)c3cccs3)C2)cc1)N1CC(c2cccnc2)C1 [Example 141]	9.60

Query: Quote pIC50 reported for O=C(Nc1ccc(O[C@@H]2CCN(C(=O)C3CC3)C2)cc1)N1CC(c2cccnc2)C1 [Example 85] please.
Response: 9.49

Query: Specify reported pIC50 for the compound shown: CC(C)C(=O)N1CC(Oc2ccc(NC(=O)N3CC(c4cccnc4)C3)cc2)C1 [Example 127]
Response: 9.22

Query: Given CCCCC(=O)N1CC[C@@H](Oc2ccc(NC(=O)N3CC(c4cccnc4)C3)cc2)C1 [Example 297] , respond with its pIC50.
Response: 9.63

Query: Assign pIC50 to the following record: CC(C)(O)C(=O)N1CCC(c2ccc(NC(=O)N3CC(c4cccnc4Cl)C3)cc2)CC1 [Example 161]
Response: 8.24

Query: // fetch pIC50 given entry O=C(CCC(F)(F)F)N1CC(Oc2ccc(NC(=O)N3CC(c4cccnc4)C3)cc2)C1 [Example 126]
Response: 9.40

----------
Listed here are molecules together with their documented IC50.
target: NAMPT (Homo sapiens)
test: TR-FRET Binding Assay of NAMPT with PRPP
assaySetup: 2 nM NAMPT, 2 nM probe, 200 µM PRPP and 2.5 mM ATP, equilibrated 16 hours
All answers are understood in pM, so give the number only.

These solved cases illustrate the format of a correct answer.
molecule	assayMetric	measuredResult
CC(C)CC(=O)N1CC[C@@H](Oc2ccc(NC(=O)N3CC(c4cccnc4)C3)cc2)C1	IC50	416
CC(C)(C)OC(=O)N1CC[C@H](Oc2ccc(NC(=O)N3CC(c4cccnc4)C3)cc2)C1	IC50	310
O=C(Nc1ccc(O[C@H]2CCN(C(=O)[C@@H]3CCCO3)C2)cc1)N1CC(c2cccnc2)C1	IC50	196

Next:
Query: Return the recorded IC50 value; entry: CCOCCC(=O)N1CCC(c2ccc(NC(=O)N3CC(c4cccnc4)C3)cc2)C1 (stereo not shown)
Response: 264

----------
# maps each entry to its pIC50
target: NAMPT (Homo sapiens)
test: TR-FRET Binding Assay of NAMPT with PRPP
assaySetup: 2 nM NAMPT, 2 nM probe, 200 µM PRPP and 2.5 mM ATP, equilibrated 16 hours
Keep it numeric: pIC50 is minus log10 of the concentration in mol/L.

compound	target	pIC50
COC(=O)c1ccc(NC(=O)N2CC(c3cccnc3)C2)cc1 [Example 13]	NAMPT (Homo sapiens)	9.43

Query: Identify measured pIC50 associated with CC(C)(C)CC(=O)N1CCC(Oc2ccc(NC(=O)N3CC(c4cccnc4)C3)cc2)CC1 [Example 45]
Response: 9.65

Query: # return recorded pIC50 for entry CCC(C)(C)C(=O)N1CC[C@@H](Oc2ccc(NC(=O)N3CC(c4cccnc4)C3)cc2)C1 [Example 330]
Response: 9.44

Query: Entry CCCC(=O)N1CC[C@H](Oc2ccc(NC(=O)N3CC(c4cccnc4)C3)cc2)C1 [Example 99] needs its pIC50 filled in; supply it.
Response: 9.38

Query: For the compound O=C(CCC(F)(F)F)N1CCC(c2ccc(NC(=O)N3CC(c4cccnc4)C3)cc2)CC1 [Example 179] , give its measured pIC50 value.
Response: 9.60
